# Circle Size values compiled below
# Test system: Enterohemorrhagic Escherichia coli (EHEC)
# TEST_SUMMARY: Bacteriostatic circle test, EHEC
# Assay type: cell-based
# MEASUREMENT_PARAMETERS: bacteriostatic circle method; strain EHEC; DMSO negative control

{"columns": ["STRUCTURE_SMILES", "Circle Size"],
 "data": [
  ["O=C(C1=C(c2ccccc2)OOc2[nH]c3ccc(F)cc3c21)c1ccccc1", "10.5 mm"],
  ["CC(=O)C1=C(C)OOc2[nH]c3ccc(Cl)cc3c21", "16.5 mm"],
  ["CC(=O)C1=C(C)OOc2[nH]c3ccc(F)cc3c21", "17 mm"],
  ["CC(=O)C1=C(C)OOc2[nH]c3ccc(C)cc3c21", "17 mm"],
  ["CC(=O)C1=C(C)OOc2[nH]c3ccccc3c21", "23 mm"],
  ["O=C(C1=C(c2ccccc2)OOc2[nH]c3ccc(Cl)cc3c21)c1ccccc1", "14.5 mm"],
  ["CC(=O)C1=C(C)OOc2[nH]c3cc(Cl)ccc3c21", "13 mm"],
  ["O=C(C1=C(c2ccccc2)OOc2[nH]c3c(F)cccc3c21)c1ccccc1", "15 mm"],
  ["O=C(C1=C(c2ccccc2)OOc2[nH]c3ccccc3c21)c1ccccc1", "12.5 mm"]
]}

From: patent US10035808B1
